Test system: HOP-62 NSCLC
Assay: NCI-60 one-dose screen, 48 h
Conditions: 10 µM unless noted
About 83,000 compounds went through this panel and 20% of them were active in at least one assay; those are over-represented in the sample as a whole. The source made the active and inactive calls. How the source made its calls: active means growth percent below 10; inactive means the rest.
Give your call using only these classes: active, inactive

Look over these answered cases.
{"compound": "C/C(=C(\\c1ccc(OCCN2CCOCC2)cc1)c1ccc(OC(=O)C2CCCCC2)cc1)c1ccc(Cl)cc1", "class.name": "inactive"}
{"compound": "CCOC(=O)CC1CSC(c2cccc(Cl)c2)=N1 (configuration not stated)", "class.name": "inactive"}
{"compound": "O=C1Nc2ccccc2/C1=C/c1cccn1CCCCCn1c2ccccc2c(=O)c2ccccc21", "class.name": "inactive"}
{"compound": "CC[C@@H]1NC(=O)[C@H]([C@H](O)[C@H](C)C/C=C/c2ccc(CN3C(=O)C(C)=C(C)C3=O)cc2)N(C)C(=O)[C@H](C(C)C)N(C)C(=O)[C@H](CC(C)C)N(C)C(=O)[C@H](CC(C)C)N(C)C(=O)[C@@H](C)NC(=O)[C@H](C)NC(=O)[C@H](CC(C)C)N(C)C(=O)[C@H](C(C)C)NC(=O)[C@H](CC(C)C)N(C)C(=O)CN(C)C1=O", "class.name": "inactive"}
{"compound": "CC1(Cc2ccccc2)CC2=C(C(=O)O1)C(c1ccccc1)NC(=O)N2 (configuration not stated)", "class.name": "inactive"}
{"compound": "Cn1cc(-c2csc(-c3c[nH]c4ccc(F)cc34)n2)c2cnccc21", "class.name": "active"}

Could you now consider this next compound?
Could you kindly confirm the outcome this assay logged for O=C1/C(=C/c2cn(-c3ccccc3)nc2-c2ccccc2)SC(=S)N1c1ccccc1 ?
inactive

====

# growth per entry
Tested on: OVCAR-5 ovarian
Assay: NCI-60 one-dose screen, 48 h (100 = growth as untreated, 0 = no growth, -100 = all killed)
Conditions: 10 µM unless noted
The panel holds about 83,000 compounds, 20% with a hit somewhere; the sample as a whole holds those more often.
Dear colleague, please return just the value in %, with no unit written.

Answered cases to consult:
{"compound": "CCCCCCCC/C=C\\CCCCCCCCOc1ccccc1CC(=O)NCC[N+]1(C)CCOCC1", "study.target": "OVCAR-5 ovarian", "growth / %": 42.7}
{"compound": "[Cu+].[NH-][C@H]1C[N-]C(=O)[C@H]([C@H]2CCN=C(N)N2)[N-]C(=O)/C(=C\\NC(N)=O)[N-]C(=O)[C@H](CNC(=O)C[C@@H](N)CCCN)[N-]C(=O)[C@H](CO)[N-]C1=O", "study.target": "OVCAR-5 ovarian", "growth / %": 113}
{"compound": "O=C1/C(=C/c2cn(-c3ccccc3)nc2-c2ccccc2)SC(=S)N1c1ccc(Cl)cc1", "study.target": "OVCAR-5 ovarian", "growth / %": 93.4}
{"compound": "CCCCC1=C(Br)C(=O)c2nc(C)ccc2C1=O", "study.target": "OVCAR-5 ovarian", "growth / %": 102}
{"compound": "CN(C)C(=O)c1cc2cnc(Nc3ccc(-c4csc5c(=S)cc(N6CCOCC6)oc45)cc3)nc2n1C1CCCC1", "study.target": "OVCAR-5 ovarian", "growth / %": 17}

// returns reported growth for input C=C(C)[C@@H]1CC[C@]2(C(=O)O)CC[C@]3(C)[C@H](CC[C@@H]4[C@@]5(C)CCC(N)C(C)(C)[C@@H]5CC[C@]43C)[C@@H]12 (some centres undefined)
96.6

Continue with CN1Cn2c(ccc2C(F)(F)F)C(=O)CS1(=O)=O
96

Continue with CCN(CC)CC(=O)Nc1ccc2ncnc(Nc3ccc(Oc4cccc(F)c4)c(Cl)c3)c2c1
80.8

Continue with O=S(=O)(Nc1ccc(F)cc1)c1ccc(-c2cnc(C3CC3)o2)cc1
59.1

Continue with CCCCCCNC(=O)Oc1ccc(/C(=C(/CC)Cc2ccccc2)c2ccc(OCCCN(C)C)cc2)cc1
90.5

Continue with C=CCNC(=O)Cc1c(-c2ccc(OC)cc2)oc2c(OC)c3c(c(OC)c12)OCO3
101
